The entries below come with measured IC50 values attached.
# Test system: K562-TAX
# Assay Name: MTS cytotoxicity assay, 72 h
# Assay type: cell-based
# Condition: read-out: IC50 K562-TAX
Respond with the bare value in µM.

# count of solved cases: 2
>>> observed_value("COc1cc2c(c(OC)c1OC)-c1ccc(N(C)C(=O)CCC3=C4C(C)=CC(C)=[N+]4[B-](F)(F)n4c(C)cc(C)c43)c(=O)cc1[C@@H](NC(C)=O)CC2")
8.07
>>> observed_value("COc1cc2c(c(OC)c1OC)-c1ccc(N(C)CCCCC3=C4C(C)=CC(C)=[N+]4[B-](F)(F)n4c(C)cc(C)c43)c(=O)cc1[C@@H](NC(C)=O)CC2")
5.18

Please examine the following record next.
Input line: Under K562-TAX: IC50 value of COc1cc2c(c(OC)c1OC)-c1ccc(OC)c(=O)cc1[C@@H](n1cc(CCCCCCCCC3=C4C(C)=CC(C)=[N+]4[B-](F)(F)n4c(C)cc(C)c43)[n+](C)n1)CC2 ?
Output line: 6.35

Data credit: paper PMC12261228
